RUN_PARAMETERS: in isopropanol, 313.15 K
ATTRIBUTE_MEASURED: solubility (mole fraction)
Just the number, please, no unit attached.

Sure, the documented solubility (mole fraction) for CC(=O)c1c(C)c([N+](=O)[O-])c(C(C)(C)C)c([N+](=O)[O-])c1C is 0.00771

* * *

RUN_PARAMETERS: in ethanol, 303.15 K
ATTRIBUTE_MEASURED: solubility (mole fraction)

The recorded solubility (mole fraction) for entry CC(=O)c1c(C)c([N+](=O)[O-])c(C(C)(C)C)c([N+](=O)[O-])c1C equals 0.00531

* * *

RUN_PARAMETERS: in ethanol, 288.15 K
ATTRIBUTE_MEASURED: solubility (mole fraction)
The answer should be written as a number, with no unit following it.

Reported solubility (mole fraction) for CC(=O)c1c(C)c([N+](=O)[O-])c(C(C)(C)C)c([N+](=O)[O-])c1C was 0.003
